Source of measurements: patent US11254663B2

- TARGET UNDER TEST: FXR (Homo sapiens (Human))
- METHOD SUMMARY: FXR EC50 (FXR agonist potency reported with each Example)
- Format: cell-based
PROPERTY: pEC50
Recall that pEC50 is obtained by taking minus log10 of the concentration measured in molar.

Can you look up pEC50 on FXR (Homo sapiens (Human)) for CC(C)c1nc(-c2cccc(N(CC34CCC(c5cc(C6CC6)n(C)n5)(CC3)CC4)C(=O)C34CC(F)(C3)C4)c2)no1 [Example 169] ?
7.01

Field: pEC50 (FXR (Homo sapiens (Human))). Entry: O=C(N(CC12CCC(c3nc(C4CC4)no3)(CC1)CC2)c1cccc(-c2ccn(C3COC3)n2)c1)C12CC(F)(C1)C2 [Example 149]
6.95

For the record O=C(N(CC12CCC(c3nc(C(F)F)no3)(CC1)CC2)c1cccc(-c2noc(C3CC3)n2)c1)C12CC(F)(C1)C2 [Example 172] , what value of pEC50 is listed for FXR (Homo sapiens (Human))?
6.81

Identify the measured pEC50 of CC(C)(C)c1nc(C23CCC(CN(C(=O)C45CC(F)(C4)C5)c4cccc(-c5nnc(C6CC6)o5)c4)(CC2)CC3)no1 [Example 157] for FXR (Homo sapiens (Human)).
7.37

Kindly state the measured pEC50 obtained for CC(=O)NC1(c2nc(-c3cccc(N(CC45CCC(c6nc(C7CC7)no6)(CC4)CC5)C(=O)C45CC(F)(C4)C5)c3)no2)CC1 [Example 111] with FXR (Homo sapiens (Human)).
6.92

Provide the documented pEC50 with FXR (Homo sapiens (Human)) as the system for CC(C)c1nc(-c2cccc(N(CC34CCC(c5ccc(C(F)(F)F)cn5)(CC3)CC4)C(=O)C34CC(F)(C3)C4)c2)no1 [Example 187]
6.22

---

Consider the following molecules; for each one, report its EC50.
- TARGET UNDER TEST: FXR (Homo sapiens (Human))
- METHOD SUMMARY: FXR EC50 (FXR agonist potency reported with each Example)
- Format: cell-based

I am curious: what EC50 value has been reported for CCc1noc(-c2cccc(N(CC34CCC(c5ccc(C(C)(C)C#N)cc5)(CC3)OC4)C(=O)C34CC(F)(C3)C4)c2)n1 ?
299 nM

Looking for the measured EC50 of O=C(C1CCC1)N(CC12CCC(c3nc(C4CC4)no3)(CC1)CC2)c1cccc(-c2cnc(C3CC3)o2)c1 , can you help?
138 nM

Give the measured EC50 of O=C(N(CC12CCC(c3nc(C4CC4)no3)(CC1)CC2)c1cccc(-c2nc(CCl)co2)c1)C12CC(F)(C1)C2 .
166 nM

Report EC50 for O=C(C1CC(F)(F)C1)N(CC12CCC(c3nc(CC4CC4)no3)(CC1)CC2)c1cccc(-c2nc(C3CC3)no2)c1 please.
598 nM

Which value of EC50 has been reported for O=C(N(CC12CCC(c3nc(C4CC4)no3)(CC1)CC2)c1cccc(-c2csc(CCl)n2)c1)C12CC(F)(C1)C2 in the records?
112 nM

Endpoint output: EC50 of O=C(C1CCC1)N(CC12CCC(c3nc(CC4CC4)no3)(CC1)CC2)c1cccc(-c2nc(CC3CC3)no2)c1 . Value?
524 nM

Given COc1cc(-c2cccc(N(CC34CCC(c5ccc(C(C)(C)C#N)cc5)(CC3)OC4)C(=O)C34CC(F)(C3)C4)c2)ccn1 , state its recorded EC50.
285 nM

# get_value(readout='EC50', item= O=C(N(CC12CCC(c3nc(C4CC4)cs3)(CC1)CC2)c1cccc(-c2nc(C3CC3)no2)c1)C12CC(F)(C1)C2 )
164 nM

# input molecule: CC(C)(C)c1nc(-c2cccc(N(CC34CCC(c5noc(C(C)(C)C)n5)(CC3)CC4)C(=O)C34CC(F)(C3)C4)c2)no1 ; wanted: its EC50
18 nM

Would you mind telling me what EC50 value was observed for O=C(C1CC(C(F)F)C1)N(CC12CCC(c3nc(C4CC4)no3)(CC1)CC2)c1cccc(-c2nc(C(F)F)co2)c1 (stereo not shown) ?
851 nM

Requested read-out: EC50. Entry: CC(C)(C)c1noc(C23CCC(CN(C(=O)C45CC(F)(C4)C5)c4cncc(-c5nc(C6CC6)no5)c4)(CC2)CC3)n1
571 nM

Fill blank: measured EC50 of the molecule COc1cccc(-c2cccc(N(CC34CCC(c5nc(C)no5)(CC3)CC4)C(=O)C3CC(F)(F)C3)c2)c1 is ____.
547 nM

For the molecule CC1(c2nc(C34CCC(CN(C(=O)C56CC(F)(C5)C6)c5cccc(-c6nc(C7CC7)no6)c5)(CC3)CC4)no2)CC1 , what EC50 is on record?
35 nM

---

- TARGET UNDER TEST: FXR (Homo sapiens (Human), UniProt Q96RI1)
- Sequence (Q96RI1 262-486): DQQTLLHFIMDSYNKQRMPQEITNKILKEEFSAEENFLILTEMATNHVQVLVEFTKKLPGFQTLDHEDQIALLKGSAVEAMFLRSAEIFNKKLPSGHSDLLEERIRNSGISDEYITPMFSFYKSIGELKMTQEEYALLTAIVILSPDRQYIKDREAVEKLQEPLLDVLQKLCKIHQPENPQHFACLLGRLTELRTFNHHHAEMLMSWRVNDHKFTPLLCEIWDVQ
- METHOD SUMMARY: FXR EC50 (FXR agonist potency reported with each Example)
- Format: cell-based
PROPERTY: pEC50
// field semantics: pEC50 = negative decimal log of concentration (mol/L)

Need pEC50 of O=C(C1CCC(F)(F)C1)N(CC12CCC(c3nc(C4CC4)no3)(CC1)OC2)c1cccc(-c2cc(C3CC3)on2)c1 (centres unmarked) , thanks.
6.52

Returns the measured pEC50 for the input molecule. Input: O=C(N(CC12CCC(c3noc(C(F)F)n3)(CC1)CC2)c1cccc(-c2noc(C(F)F)n2)c1)C12CC(F)(C1)C2
7.24

Given the molecule Cn1nc(C23CCC(CN(C(=O)C45CC(F)(C4)C5)c4cccc(-c5nc(C6CC6)no5)c4)(CC2)CC3)cc1C1CC1 , what is its reported pEC50?
7.05

Form field: reported pEC50 of CC(C)(C)c1noc(C23CCC(CN(C(=O)C45CC(F)(C4)C5)c4cccc(-c5noc(C6(C)COC6)n5)c4)(CC2)CC3)n1
7.40

I'd like to know its pEC50. The molecule in question is CCc1noc(-c2cccc(N(CC34CCC(c5nc(C6CC6)no5)(CC3)CC4)C(=O)[C@H]3C[C@](O)(C(F)(F)F)C3)c2)n1
6.74

Requested read-out: pEC50. Entry: CC1(c2nc(-c3cccc(N(CC45CCC(c6ccc(C(F)(F)F)cn6)(CC4)CC5)C(=O)C45CC(F)(C4)C5)c3)no2)CC1
6.20

Can you share its pEC50? I mean this molecule: CC(N(C(=O)C12CC(F)(C1)C2)c1cccc(-c2nc(C3CC3)no2)c1)C12CCC(c3nc(C4CC4)no3)(CC1)CC2 (single isomer, unassigned) [Example 217]
5.84

Please give the measured pEC50 for this molecule: CC(C)(C)c1nc(C23CCC(CN(C(=O)C45CC(F)(C4)C5)c4cccc(-c5cnn(S(C)(=O)=O)c5)c4)(CC2)CC3)no1
7.80

Recorded pEC50 for O=C(N(CC12CCC(c3noc(C(F)F)n3)(CC1)CC2)c1cccc(-c2nc(C3CC3)no2)c1)C12CC(F)(C1)C2 , please?
7.92

Quick one: pEC50 of O=C(C1CC(F)(F)C1)N(CC12CCC(c3nnc(C4CC4)o3)(CC1)CC2)c1cccc(-c2nc(C3CC3)no2)c1 ?
6.80

Would you mind telling me what pEC50 value was observed for CC(C)c1nc(-c2cccc(N(CC34CCC(c5nc(C6CC6)no5)(CC3)CC4)C(=O)C34CC(F)(C3)C4)c2)no1 ?
7.26

Data request, read-out pEC50, for CCOC(=O)c1coc(-c2cccc(N(CC34CCC(c5nc(C6CC6)no5)(CC3)CC4)C(=O)C34CC(F)(C3)C4)c2)n1
6.29

Can you share its pEC50? I mean this molecule: COc1cc(-c2cccc(N(CC34CCC(c5nc(C)no5)(CC3)CC4)C(=O)C34CC(F)(C3)C4)c2)ccn1
6.35

Returns the measured pEC50 for the input molecule. Input: O=C(C1CC(F)(F)C1)N(CC12CCC(c3nc(C4CC4)co3)(CC1)CC2)c1cccc(-c2cnc(C3CC3)o2)c1
6.23

Name the recorded pEC50 for O=C(N(CC12CCC(c3cc(C(F)(F)F)ccn3)(CC1)CC2)c1cccc(-c2nc(C3CC3)no2)c1)C12CC(F)(C1)C2 .
6.34

If you can, please state the reported pEC50 value of O=C(C1CC(F)(F)C1)N(CC12CCC(c3nc(C4CC4)no3)(CC1)OC2)c1cccc(-c2cc(C3CC3)on2)c1 .
6.28

I am curious: what pEC50 value has been reported for Cn1cc(-c2cccc(N(CC34CCC(c5nc(C6CC6)no5)(CC3)CC4)C(=O)C34CC(F)(C3)C4)c2)nc1C1CC1 ?
6.23

// query pEC50 value for entry Cc1noc(-c2cccc(N(CC34CCC(c5ccc(C6CC6)cc5)(CC3)CC4)C(=O)C3CC3)c2)n1
5.51

# get_value(readout='pEC50', item= CC(F)(F)c1nc(C23CCC(CN(C(=O)C45CC(F)(C4)C5)c4cccc(-c5nc(C6CC6)no5)c4)(CC2)CC3)no1 )
7.66

Can you look up the measured pEC50 of CC(C)(C)c1noc(C23CCC(CN(C(=O)C45CC(F)(C4)C5)c4cccc(-c5nnc(C6CC6)o5)c4)(CC2)CC3)n1 for me?
7.14

Would you kindly share the measured pEC50 for CCCc1ncc(-c2cccc(N(CC34CCC(c5nc(C6CC6)no5)(CC3)CC4)C(=O)C3CC(C(F)F)C3)c2)o1 (centres unmarked) ?
6.61

Please report the recorded pEC50 for CC(F)(F)c1nc(C23CCC(CN(C(=O)C45CC(F)(C4)C5)c4cccc(-c5noc(C6(C)CC6)n5)c4)(CC2)CC3)no1 .
7.24

Given the molecule COc1ncc(C23CCC(CN(C(=O)C45CC(F)(C4)C5)c4cccc(-c5nc(C6CC6)no5)c4)(CC2)CO3)cn1 , what is its reported pEC50?
6.24

Could you share which pEC50 value was measured for CC1(c2nc(-c3cccc(N(CC45CCC(c6nc(C7CC7)no6)(CC4)CC5)C(=O)C45CC(F)(C4)C5)c3)no2)CC1 ?
7.24

State the recorded pEC50 for this entry: CC(C)(C)c1nc(C23CCC(CN(C(=O)C45CC(F)(C4)C5)c4cc(-c5cn[nH]c5)ccn4)(CC2)CC3)no1
7.77

Need pEC50, item Cc1cc(C23CCC(CN(C(=O)C45CC(F)(C4)C5)c4cccc(-c5nc(C6CC6)no5)c4)(CC2)CC3)ccn1
6.12
